Data origin, for the record: ChEMBL document CHEMBL3044684

- Test Summary: Cytotoxicity against Homo sapiens (human) LS180 cells after 96 hr by MTT assay
- Type: functional, cell-based
- Assay Context: LS180, 96 h
Hi there, I'd appreciate the recorded IC16 for every entry that follows.
Numbers only here, please. The scale is µM.

Input Cc1ccc(C2C3=C(CCCC3=O)Oc3c2c(=O)oc2ccccc32)cc1 (configuration not stated) . Output IC16: 74.2

Input Cc1ccccc1C1C2=C(CCCC2=O)Oc2c1c(=O)oc1ccccc21 (configuration not stated) . Output IC16: 53.8

Input COc1cccc(C2C3=C(CCCC3=O)Oc3c2c(=O)oc2ccccc32)c1 (configuration not stated) . Output IC16: 48.9

Input O=C1CCCC2=C1C(c1ccc([N+](=O)[O-])cc1)c1c(c3ccccc3oc1=O)O2 (configuration not stated) . Output IC16: 32.6

Input COc1ccc(C2C3=C(CCCC3=O)Oc3c2c(=O)oc2ccccc32)cc1 (configuration not stated) . Output IC16: 100

====

- Tested on: Raji
- Test Summary: Cytotoxicity against Homo sapiens (human) Raji cells after 96 hr by MTT assay
- Type: functional, cell-based
Hi there, I'd appreciate the recorded IC16 for every entry that follows.
Numbers only here, please. The scale is µM.

Input COc1cccc2c1C(=O)c1c(O)c3c(c(O)c1C2=O)C[C@@](O)(C(=O)CO)C[C@@H]3O[C@H]1C[C@H](N)[C@H](O)[C@H](C)O1 [DOXORUBICIN] . Output IC16: 0.012

Input COc1ccc(C2C3=C(CCCC3=O)Oc3c2c(=O)oc2ccccc32)cc1 (centres undefined) . Output IC16: 33.1

Input Cc1cccc(C2C3=C(CCCC3=O)Oc3c2c(=O)oc2ccccc32)c1 (centres undefined) . Output IC16: 26.7

====

- Test Summary: Cytotoxicity against Homo sapiens (human) LS180 cells after 96 hr by MTT assay
- Type: functional, cell-based
- Assay Context: LS180, 96 h
pIC50: −log10 of the molar value.
Hi there, I'd appreciate the recorded pIC50 for every entry that follows.

Input O=C1CCCC2=C1C(c1ccc([N+](=O)[O-])cc1)c1c(c3ccccc3oc1=O)O2 (centres undefined) . Output pIC50: 4.12

Input COc1ccc(C2C3=C(CCCC3=O)Oc3c2c(=O)oc2ccccc32)cc1 (centres undefined) . Output pIC50: < 4.00

Input COc1cccc(C2C3=C(CCCC3=O)Oc3c2c(=O)oc2ccccc32)c1 (centres undefined) . Output pIC50: 4.00

Input COc1ccccc1C1C2=C(CCCC2=O)Oc2c1c(=O)oc1ccccc21 (centres undefined) . Output pIC50: < 4.00

Input Cc1ccccc1C1C2=C(CCCC2=O)Oc2c1c(=O)oc1ccccc21 (centres undefined) . Output pIC50: < 4.00

Input O=C1CCCC2=C1C(c1ccc(Cl)cc1)c1c(c3ccccc3oc1=O)O2 (centres undefined) . Output pIC50: < 4.00

Input O=C1CCCC2=C1C(c1ccccc1Cl)c1c(c3ccccc3oc1=O)O2 (centres undefined) . Output pIC50: < 4.60

Input Cc1ccc(C2C3=C(CCCC3=O)Oc3c2c(=O)oc2ccccc32)cc1 (centres undefined) . Output pIC50: < 4.00

Input COc1cccc2c1C(=O)c1c(O)c3c(c(O)c1C2=O)C[C@@](O)(C(=O)CO)C[C@@H]3O[C@H]1C[C@H](N)[C@H](O)[C@H](C)O1 . Output pIC50: 6.89
